Data provenance is ChEMBL document CHEMBL4513216.

Test system: Plasmodium berghei
TEST SUMMARY: Screen against P. berghei liver stage (PbLuc), transformed with Luciferase, at 2uM
Type: functional, HepG2
CONDITION INFO: tested at 2 uM
About 2,700 (4%) of roughly 68,000 compounds showed an effect of 50% or more. Only a selection was taken, and strong results are over-represented in it overall.
VALUE KIND: INHIBITION (%)
Write the answer as a number in %, unit excluded.

O=C1N(Cc2ccccn2)C[C@H]2CN(C3CCOCC3)CCN12 = -8.59
NC(=O)c1cc(-c2cccc(C(=O)O)c2)cs1 = 67.28
O=C1N(Cc2ccccn2)C[C@H]2CN(S(=O)(=O)c3ccccc3)CCN12 = 50.72
NC(=O)c1ccccc1-n1cc(-c2cccc(C(=O)O)c2)cn1 = 0.51

Continue with the next compound.
Input: Please report the recorded INHIBITION for `O=C1N(Cc2cccnc2)C[C@H]2CN(S(=O)(=O)c3ccccc3)CCN12` .
Output: 40.83

* * *

Tested on: Plasmodium berghei
TEST SUMMARY: Screen against P. berghei liver stage (PbLuc), transformed with Luciferase, at 2uM
Type: functional, HepG2
CONDITION INFO: tested at 2 uM
Screen size: about 68,000 compounds; about 2,700 (4%) showed an effect of 50% or more. The sample holds strong results, similar compounds and a random draw of the others, so the mix is not that of the screen.
VALUE KIND: INHIBITION
The reply should read as a number followed by its unit.

Some entries whose results are on file:
CN(CC(O)C1CC1)C(=O)Nc1ccc(F)c(-n2cccc2)c1 (centres undefined) = 42.76%
CCc1nnc2n1CCN(C(=O)Cc1csc(-c3ccco3)n1)C2 = -5.2%
Cc1cc(-c2nn(C)c(Cl)c2CN2CC[C@H](CO)[C@@H](O)C2)no1 = -5.87%

Input: Please report the recorded INHIBITION for `CCC(=O)Nc1ccc(F)c(S(=O)(=O)NC(C)(C)C)c1` .
Output: 57.75%

Input: Please report the recorded INHIBITION for CC(C)n1ccnc1CN1CCOC(CC2CCCCC2)C1 (centres undefined) .
Output: 63.23%

Input: Please report the recorded INHIBITION for CC(C)n1ccnc1CN1CCCN(C(=O)CC2CCCO2)CC1 (centres undefined) .
Output: 33.82%

Input: Please report the recorded INHIBITION for `CC(=O)Nc1ccc(F)c(S(=O)(=O)NC(C)(C)C)c1` .
Output: -1.87%

Input: Please report the recorded INHIBITION for `Cn1cccc1C(=O)N1CCc2c(CNS(C)(=O)=O)cncc2C1` .
Output: 6.66%

Input: Please report the recorded INHIBITION for `CC(C)(C)NS(=O)(=O)c1ccc(NC(=O)C2CC2)cc1` .
Output: 17.2%

Input: Please report the recorded INHIBITION for `CCn1cnnc1CNC(=O)N1CCN(c2ccccc2OC)CC1` .
Output: 33.61%

Input: Please report the recorded INHIBITION for `O=C(c1cscn1)N1CCC2(CN(Cc3ccoc3)C2)C1` .
Output: 46.87%

Input: Please report the recorded INHIBITION for `CCOc1ncnc2c1CCN(C(=O)CN(C)C)CC2` .
Output: 19.49%

* * *

System: Plasmodium berghei
TEST SUMMARY: Screen against P. berghei liver stage (PbLuc), transformed with Luciferase, at 2uM
Format: functional, HepG2
CONDITION INFO: tested at 2 uM
In all, about 68,000 compounds went through this assay and about 2,700 (4%) showed an effect of 50% or more. The sample as a whole holds a higher share of strong results than the screen did.
# Fulfilled = INHIBITION below 10% (exclusive); Not fulfilled = INHIBITION at/above 10%

Known results for molecules:
O=C(NCc1ccco1)C1CCCN1Cc1nc(-c2ccco2)no1 (centres undefined) = Fulfilled
Cc1cccc(NC(=O)CNC(=O)c2ccccc2F)c1 = Not fulfilled
COc1cccc(C2c3c(n[nH]c3C)N=C3COC(=O)C32)c1O (centres undefined) = Not fulfilled

Input: In plain terms, does `O=C(c1cc(COc2ccc3c(c2)OCO3)[nH]n1)N1CCSCC1` come in under 10% for INHIBITION?
Output: Not fulfilled

Input: In plain terms, does COc1c(C2CCCN2Cc2nc(C3CC3)no2)c(C)nn1C (centres undefined) come in under 10% for INHIBITION?
Output: Fulfilled

Input: In plain terms, does Cc1cccc(C(=O)N2CCC3(CC2)CC(c2cnn(C)c2)CO3)c1 (centres undefined) come in under 10% for INHIBITION?
Output: Not fulfilled

Input: In plain terms, does Cc1cc(C)n(CC2CN(CC(=O)N3CCC3)CCO2)n1 (centres undefined) come in under 10% for INHIBITION?
Output: Fulfilled

Input: In plain terms, does `CCn1cc(CNc2ccc(F)c(N3CCCS3(=O)=O)c2)cn1` come in under 10% for INHIBITION?
Output: Not fulfilled

Input: In plain terms, does CN(C)CCn1ccnc1C1CCCN(c2nccc3ccccc23)C1 (centres undefined) come in under 10% for INHIBITION?
Output: Not fulfilled
